The entries below are paired with their reported cell viability.
Test system: MOLM14
experiment_notes: cell viability relative to vehicle control; higher = less cytotoxic;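 further: after 48 h exposure read by CellTiter-Glo luminescence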
condition_parameters: 10 µM; SRSF2 genotype: SRSF2 P95H/wt
quantity_measured: cell viability (%)

                            molecule_smiles  assay_target  readout_number
0                   Cc1ncc([N+](=O)[O-])n1C        MOLM14            99.1
1  Cc1ccc(C(=O)c2cc(O)c(O)c([N+](=O)[O-])c2)cc1        MOLM14             106
2      O=C1c2cccc(O)c2C(=O)c2c(O)cc(CO)cc21        MOLM14            92.4
3  C[C@@H]1COC(Nc2ccc3ncnc(Nc4ccc(OCc5nccs5)c(Cl)c4)c3c2)=N1        MOLM14            91.7
4        Clc1ccc(NN=C(c2ccccc2)c2ccccn2)nc1        MOLM14            1.65

====

Test system: MARIMO
experiment_notes: cell viability relative to vehicle control; higher = less cytotoxic
condition_parameters: 10 µM; SRSF2 genotype: SRSF2 wt/wt
quantity_measured: cell viability (%)

compound	unit_of_measurement	readout_number
C[C@@]1(C(=O)Nc2ccc(F)nc2)CCCN1c1nc(Nc2cc(C3CC3)n[nH]2)c2cccn2n1	%	33.2
N#CCNC(=O)c1ccc(-c2ccnc(Nc3ccc(N4CCOCC4)cc3)n2)cc1 [Momelotinib (CYT387)]	%	42.8
CCCCCCCC(=O)N[C@H](CN1CCCC1)[C@H](O)c1ccc2c(c1)OCCO2 [Eliglustat (Tartrate)]	%	89.7
CC1(C)CC[C@]2(C(=O)O)CC[C@]3(C)C(=CC[C@@H]4[C@@]5(C)CC[C@H](O)C(C)(C)[C@@H]5CC[C@]43C)[C@@H]2C1 [Oleanolic Acid (Caryophyllin)]	%	82.8
CC(C)C(NC(=O)c1ccc2ccccc2n1)C(=O)NC(CC(=O)O)C(=O)COc1c(F)cccc1F (stereo not drawn)	%	110
CC(C)(C)c1cc(C(C)(C)C)c(NC(=O)c2c[nH]c3ccccc3c2=O)cc1O [Ivacaftor (VX-770)]	%	111
CCOC(=O)n1ccn(C)c1=S [Carbimazole]	%	103
COc1cc2c(cc1Cc1cccc(Cl)c1F)c(=O)c(C(=O)O)cn2[C@H](CO)C(C)C [Elvitegravir (GS-9137)]	%	39.1

====

Tested on: K562
experiment_notes: cell viability relative to vehicle control; higher = less cytotoxic
condition_parameters: 10 µM; SRSF2 genotype: SRSF2 wt/wt
quantity_measured: cell viability (%)

>>> print(df.to_string())
                                   compound  quantity_measured  readout_number
0  CC(=O)O[C@]1(C(C)=O)CC[C@H]2[C@@H]3CCC4=CC(=O)CCC4=C3[C@@H](c3ccc(N(C)C)cc3)C[C@@]21C [Ulipristal acetate]     cell viability            86.7
1    O=C1CC[C@@H](C(=O)N2CSC[C@H]2C(=O)O)N1     cell viability             101
2         O=C(/C=C/c1ccc(O)cc1)c1ccc(O)cc1O     cell viability            84.4
3  Cc1nc(-c2cccnc2)sc1C(=O)Nc1ccccc1-c1cn2c(CN3CCOCC3)csc2n1     cell viability            88.3
4         O=CN1CC/C(=C/c2ccc3c(c2)OCO3)C1=O     cell viability            94.6

====

System: MOLM14
experiment_notes: cell viability relative to vehicle control; higher = less cytotoxic
condition_parameters: 10 µM; SRSF2 genotype: SRSF2 P95H/wt
Structures can show the parent of a compound that is named as a salt.
quantity_measured: cell viability (%)

>>> df
                                   molecule  assay_target  readout_number
0  COC(=O)CCSCc1ccc(-c2onc(C)c2NC(=O)OC(C)c2ccccc2Cl)cc1 (stereo not given)        MOLM14              90
1  CC(C)C[C@H](NC(=O)[C@H](Cc1ccccc1)NC(=O)c1cnccn1)B(O)O        MOLM14            0.29
2  Oc1ccc(-c2nc(-c3ccc(F)cc3)c(-c3ccncc3)[nH]2)cc1        MOLM14            97.9
3  CC1Cc2ccccc2N1NC(=O)c1ccc(Cl)c(S(N)(=O)=O)c1 (stereo not given) [Indapamide (Lozol)]        MOLM14             106
4  CCN(CC)CCOCCOC(=O)C1(c2ccccc2)CCCC1 [Pentoxyverine Citrate]        MOLM14            96.4

====

Tested on: MOLM14
experiment_notes: cell viability relative to vehicle control; higher = less cytotoxic
condition_parameters: 10 µM; SRSF2 genotype: SRSF2 wt/wt
Structures can show the parent of a compound that is named as a salt.
The entries below are paired with their reported cell viability.

compound	cell viability [%]
C[C@H](CCC(=O)O)[C@H]1CC[C@H]2[C@@H]3[C@@H](O)C[C@@H]4C[C@H](O)CC[C@]4(C)[C@H]3CC[C@]12C	100
CC[C@@H]1/C=C(\C)C[C@H](C)C[C@H](OC)[C@H]2O[C@@](O)(C(=O)C(=O)N3CCCC[C@H]3C(=O)O[C@H](/C(C)=C/[C@@H]3CC[C@H](Cl)[C@H](OC)C3)[C@H](C)[C@@H](O)CC1=O)[C@H](C)C[C@@H]2OC	67.3
COc1cc2c(cc1OC(C)C)[C@H](c1ccc(Cl)cc1)N(c1ccc(N(C)C[C@H]3CC[C@H](N4CCN(C)C(=O)C4)CC3)cc1)C(=O)C2	0.13
O=c1[nH]c(=O)n([C@H]2C[C@H](O)[C@@H](CO)O2)cc1Br	79.1
CCCCS(=O)(=O)N[C@@H](Cc1ccc(OCCCCC2CCNCC2)cc1)C(=O)O [Tirofiban Hydrochloride]	99.6
COc1ccc(C[C@@H](C)NC[C@H](O)c2ccc(O)c(NC=O)c2)cc1 [Arformoterol Tartrate]	90.9
CC(C)(C)S(=O)(=O)c1ccc2nccc(Nc3n[nH]c4ccc(F)cc34)c2c1	95.6
CN1CCN(CCCN2c3ccccc3Sc3ccc(C(F)(F)F)cc32)CC1 [Trifluoperazine 2HCl]	58.7
CC(C)OC(=O)CCC/C=C\C[C@@H]1[C@@H](/C=C/C(F)(F)COc2ccccc2)[C@H](O)C[C@@H]1O	97.7
CC(C)=CCC[C@](C)(O[C@@H]1O[C@H](CO)[C@@H](O)[C@H](O)[C@H]1O)[C@H]1CC[C@]2(C)[C@@H]1[C@H](O)C[C@@H]1[C@@]3(C)CC[C@H](O)C(C)(C)[C@@H]3[C@@H](O)C[C@]12C [Ginsenoside F1]	104
N=C(N)NC(=N)NCCc1ccccc1 [Phenformin hydrochloride]	94.9
CCCCN1CCCCC1C(=O)Nc1c(C)cccc1C (centres undefined) [Bupivacaine hydrochloride (Marcain)]	102
Cc1ccc(C(C)C)cc1O	100
COC(=O)N[C@H](C(=O)N[C@@H](Cc1ccccc1)[C@@H](O)CN(Cc1ccc(-c2ccccn2)cc1)NC(=O)[C@@H](NC(=O)OC)C(C)(C)C)C(C)(C)C [Atazanavir sulfate]	104

====

System: MARIMO
experiment_notes: cell viability relative to vehicle control; higher = less cytotoxic
condition_parameters: 10 µM; SRSF2 genotype: SRSF2 P95H/wt
quantity_measured: cell viability (%)

>>> df
                                   molecule  quantity_measured  readout_number
0  Cc1ccc2c(c1)c1c(n2CCc2ccc(C)nc2)CCN(C)C1 [Latrepirdine 2HCl]     cell viability            73.8
1  O=C(C[S+]([O-])Cc1ccco1)NC/C=C\COc1cc(CN2CCCCC2)ccn1 (centres undefined)     cell viability             104
2  C[C@@H](O)[C@H]1C(=O)N2C(C(=O)O)=C(S[C@@H]3CN[C@H](C(=O)Nc4cccc(C(=O)O)c4)C3)[C@H](C)[C@H]12 [Ertapenem sodium]     cell viability             103
3                       Cc1ccc(C(C)C)c(O)c1     cell viability            97.9

====

System: OCI-AML2
experiment_notes: cell viability relative to vehicle control; higher = less cytotoxic
condition_parameters: 10 µM; SRSF2 genotype: wt/wt

compound	unit_of_measurement	cell viability
C[C@@H]1CC[C@@]2(NC1)O[C@H]1C[C@H]3[C@@H]4CC=C5C[C@@H](O[C@@H]6O[C@H](CO)[C@@H](O[C@@H]7O[C@@H](C)[C@H](O)[C@@H](O)[C@H]7O)[C@H](O)[C@H]6O)CC[C@]5(C)[C@H]4CC[C@]3(C)[C@H]1[C@@H]2C	%	107
C[C@]12CCC(=O)C=C1CC[C@@H]1[C@@H]2[C@@H](O)C[C@@]2(C)[C@H]1CC[C@]2(O)C(=O)CO [Hydrocortisone (Cortisol)]	%	118
COc1cc(CCC(C)=O)ccc1O	%	108
CCCCCCCCCCCCCCCCO	%	116
Cc1cc(S(=O)(=O)O)c2c(C)ccc(C(C)C)cc1-2 [Sodium gualenate]	%	106
Nc1ncnc2c1C(=O)N(c1ccc([C@H]3CC[C@H](CC(=O)O)CC3)cc1)CCO2	%	123
Nc1nc(=O)[nH]c2c1ncn2[C@@H]1O[C@H](CO)[C@@H](O)[C@H]1O	%	91.8
COc1cc(C2Oc3ccc(C4Oc5cc(O)cc(O)c5C(=O)C4O)cc3OC2CO)ccc1O (configuration not stated)	%	95.3
Cn1c(=O)cc(C(=O)Nc2ccc3c(c2)OCCO3)c2ccccc21	%	101
O=C(O)[C@H]1O[C@@H](Oc2cc3oc(-c4ccccc4)cc(=O)c3c(O)c2O)[C@H](O)[C@@H](O)[C@@H]1O	%	95.3
CC12CCC(CC1)C(C)(C)O2	%	103
CCC(=O)NCC[C@@H]1CCc2ccc3c(c21)CCO3	%	99.4
O=c1cc(-c2ccc(OC3OC(CO)C(O)C(O)C3O)cc2)oc2c(C3OC(CO)C(O)C(O)C3O)c(O)cc(O)c12 (configuration not stated)	%	96.8
COc1cccc(-c2cc(NCc3ccc4c(c3)OCO4)nc(N)n2)c1	%	13.1
CN1CCN(C(=O)C=Cc2ccc([N+](=O)[O-])o2)CC1	%	42.6
Cc1coc2c1C(=O)C(=O)c1c-2ccc2c(C)cccc12	%	60
CCC(=O)O[C@]1(C(=O)CCl)[C@@H](C)C[C@H]2[C@@H]3CCC4=CC(=O)C=C[C@]4(C)[C@@]3(F)[C@@H](O)C[C@@]21C [Clobetasol propionate]	%	101
